# assay procedure: NPC library primary testing for decreased DLD-1 cell viability via CellTiter-Glo (AID 1117346)
# assay conditions: DLD-1 viability, CellTiter-Glo luminescence; at 20 µM (top of the series)
Please go through the items and note down their viability decrease (inhibition).
Give your result in % as a bare value.

Endpoint output: viability decrease (inhibition) of Cc1cc(O)cc(C)c1Cl . Value?
9.3

Endpoint output: viability decrease (inhibition) of N[C@@H](Cc1ccc(O)c(O)c1)C(=O)O . Value?
47.5

Endpoint output: viability decrease (inhibition) of O=c1cc[nH]c(=S)[nH]1 . Value?
-8.5

Endpoint output: viability decrease (inhibition) of Cc1cccc(N(C)C(=S)Oc2ccc3ccccc3c2)c1 . Value?
56.8

Endpoint output: viability decrease (inhibition) of Nc1ccc(C(=O)NCC(=O)O)cc1 . Value?
4.3

Endpoint output: viability decrease (inhibition) of O=C(CCCN1CCN(c2ccccn2)CC1)c1ccc(F)cc1 . Value?
20.2

Endpoint output: viability decrease (inhibition) of COC(=O)C1=C(C)NC(C)=C(C(=O)OC(C)C)C1c1cccc2nonc12 (centres undefined) . Value?
11.2

Endpoint output: viability decrease (inhibition) of O=c1[nH]cnc2c1ncn2[C@H]1CC[C@@H](CO)O1 . Value?
-6.1

Endpoint output: viability decrease (inhibition) of COc1cc(C(=O)NCc2ccc(OCCN(C)C)cc2)cc(OC)c1OC . Value?
-8.9

Endpoint output: viability decrease (inhibition) of COC(=O)Nc1nc2ccc(S(=O)c3ccccc3)cc2[nH]1 (centres undefined) . Value?
88

Endpoint output: viability decrease (inhibition) of CC(=O)Oc1cccc2c1C(=O)c1c(OC(C)=O)cc(C(=O)O)cc1C2=O . Value?
64.3

Endpoint output: viability decrease (inhibition) of OC[C@H]1O[C@@H](Oc2ccc(O)cc2)[C@H](O)[C@@H](O)[C@@H]1O . Value?
-10.8

Endpoint output: viability decrease (inhibition) of CN1Cc2c(N)cccc2C(c2ccccc2)C1 (centres undefined) . Value?
4.2

Endpoint output: viability decrease (inhibition) of Cc1c(C(=O)O)c(O)cc2c1C(=O)c1c(O)c([C@@H]3O[C@H](CO)[C@@H](O)[C@H](O)[C@H]3O)c(O)c(O)c1C2=O . Value?
34.5

Endpoint output: viability decrease (inhibition) of O=C(c1ccc(F)cc1)C1CCN(CCn2c(=O)[nH]c3ccccc3c2=O)CC1 . Value?
16.9

Endpoint output: viability decrease (inhibition) of O=C1Nc2ccc(Cl)cc2[C@@](C#CC2CC2)(C(F)(F)F)O1 . Value?
49.4

Endpoint output: viability decrease (inhibition) of CCOc1ccc(Cc2nccc3cc(OCC)c(OCC)cc23)cc1OCC . Value?
62.3

Endpoint output: viability decrease (inhibition) of Cc1c[nH]c2ccccc12 . Value?
10

Endpoint output: viability decrease (inhibition) of CN1[C@@H]2CC[C@H]1CC(OC(=O)c1c[nH]c3ccccc13)C2 (some centres undefined) . Value?
43.6

Endpoint output: viability decrease (inhibition) of Oc1cccc(O)c1 . Value?
2.6

Endpoint output: viability decrease (inhibition) of Cc1onc(-c2ccccc2Cl)c1C(=O)N[C@@H]1C(=O)N2[C@@H]1SC(C)(C)[C@@H]2C(=O)O . Value?
-0.7

Endpoint output: viability decrease (inhibition) of N[C@@H](CCC(=O)N[C@@H](CS)C(=O)NCC(=O)O)C(=O)O . Value?
-4.3

Endpoint output: viability decrease (inhibition) of COc1ccc(C2CNC(=O)C2)cc1OC1CCCC1 (centres undefined) . Value?
29.1

Endpoint output: viability decrease (inhibition) of Cc1ccsc1C(=CCCN1CCC[C@@H](C(=O)O)C1)c1sccc1C . Value?
2.5

* * *

# assay procedure: EMT-state selective cytotoxicity in co-culture – imaging, PC-3E GFP, TEM4-18 mCherry, primary screen (AID 1345086);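 note: cells exposed to compound for 72 h before imaging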
# assay conditions: PC-3E GFP / TEM4-18 mCherry co-culture, imaging cell counts; measured here: epithelial PC-3E GFP cell survival; at 1 µM
Please go through the items and note down their normalised cell number.
Answer with a number only.

Endpoint output: normalised cell number of Nc1nc2c(c(=O)[nH]1)N(C=O)C(CNc1ccc(C(=O)N[C@@H](CCC(=O)O)C(=O)O)cc1)CN2 (stereo not given in full) . Value?
0.95

Endpoint output: normalised cell number of O=NN(CCCl)C(=O)NCCCl . Value?
1.15

Endpoint output: normalised cell number of COc1c2occc2c(OC)c2c(=O)cc(C)oc12 . Value?
1.07

Endpoint output: normalised cell number of OCc1cc(C(O)CNCCCCCCOCCCCc2ccccc2)ccc1O (stereo not given) . Value?
0.82

Endpoint output: normalised cell number of OC[C@H]1O[C@@H](Oc2ccc(O)cc2)[C@H](O)[C@@H](O)[C@@H]1O . Value?
1.15

Endpoint output: normalised cell number of COC(=O)C1=C(C)NC(C)=C(C(=O)OCC(C)C)C1c1ccccc1[N+](=O)[O-] (stereo not given) . Value?
1.11

Endpoint output: normalised cell number of CCc1nn(CCCN2CCN(c3cccc(Cl)c3)CC2)c(=O)n1CCOc1ccccc1 . Value?
0.96

Endpoint output: normalised cell number of CC(C)[C@H](N)C(=O)OCCOCn1cnc2c(=O)[nH]c(N)nc21 . Value?
1.13

Endpoint output: normalised cell number of Cc1ccnc(NS(=O)(=O)c2ccc(N)cc2)n1 . Value?
0.98

Endpoint output: normalised cell number of CN1CCN(C(c2ccccc2)c2ccccc2)CC1 . Value?
1.05

Endpoint output: normalised cell number of Cc1cc(CC(=O)O)n(C)c1C(=O)c1ccc(Cl)cc1 . Value?
1.1

Endpoint output: normalised cell number of CCc1c2c(nc3ccc(OC(=O)N4CCC(N5CCCCC5)CC4)cc13)-c1cc3c(c(=O)n1C2)COC(=O)[C@]3(O)CC . Value?
0.32

Endpoint output: normalised cell number of NCCCC[C@H](N[C@@H](CCc1ccccc1)C(=O)O)C(=O)N1CCC[C@H]1C(=O)O . Value?
0.22

Endpoint output: normalised cell number of O=c1c(O)c(-c2ccc(O)c(O)c2)oc2cc(O)cc(O)c12 . Value?
1.15

Endpoint output: normalised cell number of Cn1c(=O)c2c(ncn2CCO)n(C)c1=O . Value?
0.95

Endpoint output: normalised cell number of CCCN[C@H]1CCc2nc(N)sc2C1 . Value?
1.3

Endpoint output: normalised cell number of COc1cc2nc(N3CCN(C(=O)C4CCCO4)CC3)nc(N)c2cc1OC (stereo not given) . Value?
0.99

Endpoint output: normalised cell number of Cn1nnc2c(C(N)=O)ncn2c1=O . Value?
1.03

Endpoint output: normalised cell number of CCOC(N)=O . Value?
0.95

Endpoint output: normalised cell number of O=C(NCCN1CCOCC1)c1ccc(Cl)cc1 . Value?
0.89

Endpoint output: normalised cell number of Nc1ncnc2nc[nH]c12 . Value?
1.11

Endpoint output: normalised cell number of CC(=O)Nc1c(I)cc(I)c(C(=O)O)c1I . Value?
1.19

Endpoint output: normalised cell number of CCCCCCCCCCCCCCCCCCOCC(O)CO (stereo not given) . Value?
0.96

Endpoint output: normalised cell number of Nc1nc(=S)c2[nH]cnc2[nH]1 . Value?
0.83

Endpoint output: normalised cell number of Cn1c([N+](=O)[O-])cnc1COC(N)=O . Value?
1.01
